Cited source for all entries: paper PMC5077133

# System: HeLa cells
# TEST PROTOCOL: Cytotoxicity against mammalian cells (MTS assay)
# Assay type: cell-based
QUANTITY MEASURED: CC50% (72 h HeLa cells)

item_smiles=Cc1ccc(-c2cc(/C=C/c3ccc(N(C)C)cc3)[o+]c(-c3ccc(C)cc3)c2)cc1.F[B-](F)(F)F measured_result=<.78125
item_smiles=Cc1ccc(-c2cc(/C=C/c3cc4c5c(c3)CCCN5CCC4)[o+]c(-c3ccc(C)c(C)c3)c2)cc1C.F[B-](F)(F)F measured_result=<.78125
item_smiles=Cc1ccc(-c2cc(/C=C/c3cc4c5c(c3)CCCN5CCC4)[o+]c(-c3ccc(C)cc3)c2)cc1.F[B-](F)(F)F measured_result=<.78125
item_smiles=Cc1cc(/C=C/C=C/c2ccc(N(C)C)cc2)cc(C)[o+]1.F[B-](F)(F)F measured_result=>32
item_smiles=CCc1ccc(-c2cc(/C=C/c3ccc(N(C)C)cc3)[o+]c(-c3ccc(CC)cc3)c2)cc1.F[B-](F)(F)F measured_result=<.78125
item_smiles=CN(C)c1ccc(/C=C/c2cc(-c3ccc(Cl)cc3)cc(-c3ccc(Cl)cc3)[o+]2)cc1.F[B-](F)(F)F measured_result=>32
item_smiles=CN(C)c1ccc(/C=C/C=C/c2cc(-c3ccc(Cl)cc3)cc(-c3ccc(Cl)cc3)[o+]2)cc1.F[B-](F)(F)F measured_result=>32
